methodSummary: Deoxyribose-damaging property as a measure of hydroxyl-radical formation (uM of malondialdehyde/mmol of deoxyribose released by 75 uM test compound)
measurementName: Deoxyribose degradation (uM of MDA mM-1)

Some compounds with recorded Deoxyribose degradation (uM of MDA mM-1):
- compound: "O=C1c2c(O)cccc2C(=Cc2ccc(O)c(O)c2)c2cccc(O)c21"
  quantitativeResult: 0.44
- compound: "CC(Cc1ccc(O)c(O)c1)C(C)Cc1ccc(O)c(O)c1 (centres undefined) [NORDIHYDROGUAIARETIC ACID]"
  quantitativeResult: 0.23
- compound: "O=C1c2c(O)cccc2C(C(=O)Cc2ccc(O)c(O)c2)c2cccc(O)c21"
  quantitativeResult: 6.26
- compound: "O=C1c2c(O)cccc2C(C(=O)/C=C/c2ccc([N+](=O)[O-])cc2)c2cccc(O)c21"
  quantitativeResult: 0.88

a = O=C1c2c(O)cccc2C(C(=O)Cc2cc(O)c(O)c(O)c2)c2cccc(O)c21
b = O=C1c2c(O)cccc2C(C(=O)/C=C/c2ccccc2)c2cccc(O)c21
Query: Parameter metric = Deoxyribose degradation (uM of MDA mM-1). Return the lower-valued option from a and b . Write the label of whichever entry you select.
Reply: b
(b: 1.66, a: 2.99)

----------
Deoxyribose degradation (uM of MDA mM-1): recorded values
methodSummary: Deoxyribose-damaging property as a measure of hydroxyl-radical formation (uM test compound)

- smilesInput: "Cc1ccc(C=C2c3cccc(O)c3C(=O)c3c(O)cccc32)cc1"
  Deoxyribose degradation (uM of MDA mM-1): "< 0.15"
- smilesInput: "O=C1c2c(O)cccc2C(C(=O)CCc2ccc(O)cc2)c2cccc(O)c21"
  Deoxyribose degradation (uM of MDA mM-1): 2.5

Query: Quick check: Deoxyribose degradation (uM of MDA mM-1) of `N#Cc1ccc(C=C2c3cccc(O)c3C(=O)c3c(O)cccc32)cc1` ?
Reply: < 0.15

Query: Entry `COc1cc(CCC(=O)C2c3cccc(O)c3C(=O)c3c(O)cccc32)cc(OC)c1OC` please
Reply: < 0.2

Query: Cool, now `O=C1c2c(O)cccc2C(C(=O)CCCc2ccccc2)c2cccc(O)c21`
Reply: < 0.2

----------
methodSummary: Reducing activity against 2,2-diphenyl-1-picrylhydrazyl
Format: ADME
measurementName: kDPPH (M⁻¹ s⁻¹)

# example entries with known answers
- smilesInput: "COc1ccc(CCC(=O)C2c3cccc(O)c3C(=O)c3c(O)cccc32)cc1"
  readoutUnits: "M⁻¹ s⁻¹"
  quantitativeResult: 7.4
- smilesInput: "O=C1c2c(O)cccc2C(C(=O)Cc2cc(OCc3ccccc3)c(OCc3ccccc3)c(OCc3ccccc3)c2)c2cccc(O)c21"
  readoutUnits: "M⁻¹ s⁻¹"
  quantitativeResult: 15.3
- smilesInput: "O=C1c2c(O)cccc2C(C(=O)CCCCc2ccccc2)c2cccc(O)c21"
  readoutUnits: "M⁻¹ s⁻¹"
  quantitativeResult: 10.1
- smilesInput: "O=C1c2c(O)cccc2C(C(=O)Cc2ccc(OCc3ccccc3)c(OCc3ccccc3)c2)c2cccc(O)c21"
  readoutUnits: "M⁻¹ s⁻¹"
  quantitativeResult: 15
- smilesInput: "O=C1c2c(O)cccc2C(C(=O)CCc2ccc(O)cc2)c2cccc(O)c21"
  readoutUnits: "M⁻¹ s⁻¹"
  quantitativeResult: 7.8

I = O=C1c2c(O)cccc2C(C(=O)Cc2ccc([N+](=O)[O-])cc2)c2cccc(O)c21
II = O=C1c2c(O)cccc2Cc2cccc(O)c21
III = COc1cc(CCC(=O)C2c3cccc(O)c3C(=O)c3c(O)cccc32)cc(OC)c1OC
Query: Parameters: sort_field (kDPPH), sort_dir (desc). Answer format: list of labels, ordered as asked.
Reply: I, II, III

The reported numbers originate from ChEMBL document CHEMBL1126969.
